Data provenance: ChEMBL document CHEMBL1136873

assay: Inhibition of MAPK
measured_quantity: IC50 (nM)
Kindly answer with a numeric value in nM, unit omitted.

Prompt: For the compound COc1cc(O)c2c(c1)CCCC(O)[C@H](O)C(=O)/C=C\C[C@H](C)OC2=O (single isomer, unassigned) , give its measured IC50 value.
Response: 4

----------
For each entry below, report its pIC50 value.
In textbook form, pIC50 equals minus log to base ten of the concentration in mol/L.

Prompt: Name the value of pIC50 reported for COc1cc(O)c2c(c1)CCCC(O)[C@H](O)C(=O)/C=C\C[C@H](C)OC2=O (single isomer, unassigned) when tested on Tyrosine-protein kinase Lck (Homo sapiens).
Sequence (P06239 whole entry): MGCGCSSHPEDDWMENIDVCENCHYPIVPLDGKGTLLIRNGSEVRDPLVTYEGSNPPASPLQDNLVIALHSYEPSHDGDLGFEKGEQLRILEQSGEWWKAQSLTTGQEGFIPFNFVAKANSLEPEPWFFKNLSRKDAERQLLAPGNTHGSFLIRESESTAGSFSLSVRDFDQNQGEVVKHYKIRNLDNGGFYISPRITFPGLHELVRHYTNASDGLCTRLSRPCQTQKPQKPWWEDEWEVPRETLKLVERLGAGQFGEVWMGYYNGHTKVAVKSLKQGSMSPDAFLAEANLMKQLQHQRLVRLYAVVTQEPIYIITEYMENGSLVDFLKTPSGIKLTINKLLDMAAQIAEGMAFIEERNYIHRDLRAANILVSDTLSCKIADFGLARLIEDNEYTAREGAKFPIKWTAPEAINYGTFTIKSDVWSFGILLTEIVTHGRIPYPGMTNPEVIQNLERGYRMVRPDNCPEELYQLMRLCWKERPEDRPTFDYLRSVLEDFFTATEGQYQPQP
Response: 6.12

Prompt: Name the value of pIC50 reported for COc1cc(O)c2c(c1)/C=C/C[C@@H](O)[C@H](O)C(=O)CCC[C@H](C)OC2=O [DIHYDROXYMETHYLZEARALENONE] when tested on Tyrosine-protein kinase Lck (Homo sapiens).
Response: 6.70
